Test system: GB-1;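 also: growth of GB-1 cells judged by a viability assay, IC50 marks the concentration inhibiting growth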
method-description: cells
Type: functional, cell-based, Homo sapiens
cond: Homo sapiens, GB-1
Description: SANGER: Inhibition of human GB-1 cell growth in a cell viability assay.

{"molecule": "CC1(C)CCC(c2ccc(Cl)cc2)=C(CN2CCN(c3ccc(C(=O)NS(=O)(=O)c4ccc(N[C@H](CCN5CCOCC5)CSc5ccccc5)c(S(=O)(=O)C(F)(F)F)c4)cc3)CC2)C1", "test-target": "GB-1", "cmp": ">", "IC50 / µM": 2}
{"molecule": "CC(C)C[C@H](NC(=O)[C@H](Cc1ccccc1)NC(=O)c1cnccn1)B(O)O", "test-target": "GB-1", "cmp": "=", "IC50 / µM": 0.00181}
{"molecule": "COc1ccc(-c2cc3nccn3c(Nc3ncccc3C(N)=O)n2)cc1OC", "test-target": "GB-1", "cmp": "=", "IC50 / µM": 2.83}
{"molecule": "C=CC(=O)N1CCCC(Nc2nc(Nc3ccc(N(C)C(=O)CC)cc3)nc3[nH]cnc23)C1 (stereo not drawn)", "test-target": "GB-1", "cmp": ">", "IC50 / µM": 10.2}
{"molecule": "COc1cc(N2CCC(N3CCN(C)CC3)CC2)ccc1Nc1ncc(Cl)c(Nc2ccccc2S(=O)(=O)C(C)C)n1", "test-target": "GB-1", "cmp": "=", "IC50 / µM": 0.389}
{"molecule": "NC(=O)Nc1cc(-c2cccc(F)c2)sc1C(=O)N[C@H]1CCCNC1", "test-target": "GB-1", "cmp": "=", "IC50 / µM": 1.38}
{"molecule": "C[C@@H](Oc1cc(-c2cnn(C3CCNCC3)c2)cnc1N)c1c(Cl)ccc(F)c1Cl", "test-target": "GB-1", "cmp": ">", "IC50 / µM": 2}
{"molecule": "COc1ccc(N(C(=O)Oc2c(C)cccc2C)c2ccnc(Nc3ccc(N4CCN(C)CC4)cc3)n2)c(OC)c1", "test-target": "GB-1", "cmp": "=", "IC50 / µM": 1.16}

###

System: PC-3;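 also: cell viability assay measuring growth inhibition of PC-3 cells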
method-description: cells
Format: functional, cell-based
cond: Homo sapiens
Description: SANGER: Inhibition of human PC-3 cell growth in a cell viability assay.
pIC50: −log10 of the molar value.
parameter-measured: pIC50

{"molecule": "O=S(=O)(O)c1ccc2cc(/N=N/c3cc(S(=O)(=O)O)c4cccnc4c3O)ccc2c1", "reported": "< 4.80"}
{"molecule": "CCCCCCCCCCCC1=C(O)C(=O)C=C(O)C1=O [EMBELIN]", "reported": 4.83}
{"molecule": "COC(=O)[C@H](CCSC)NC(=O)c1ccc(NC[C@@H](N)CS)cc1-c1ccccc1", "reported": "< 5.99"}
{"molecule": "NC1(c2ccc(-c3nc4ccn5c(=O)[nH]nc5c4cc3-c3ccccc3)cc2)CCC1 [MK-2206]", "reported": "< 5.40"}

###

Tested on: TE-6;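 also: growth inhibition of TE-6 cells, read out with a cell viability assay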
method-description: cells
Assay type: functional, cell-based, Homo sapiens
cond: te-6
Description: SANGER: Inhibition of human TE-6 cell growth in a cell viability assay.
Where a SMILES comes first, the peptide text is derived from it. The star is where a group is joined. Cbz = O=C(OCc1ccccc1)*
parameter-measured: IC50

{"compound": "CC(C)C[C@@H](C=O)NC(=O)[C@H](CC(C)C)NC(=O)[C@H](CC(C)C)NC(=O)OCc1ccccc1 [MG-132] (Cbz-Leu-Leu-Leu-aldehyde)", "test-target": "TE-6", "reported": "> 1 µM"}

###

The compounds listed here are annotated with their pIC50.
Test system: U2OS;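 also: growth inhibition of human U-2-OS cells, determined with a cell viability assay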
method-description: cells
Format: functional, cell-based, U-2-OS
cond: Homo sapiens
Description: SANGER: Inhibition of human U-2-OS cell growth in a cell viability assay.
pIC50: −log10 of the molar value.
parameter-measured: pIC50

{"compound": "CS(=O)(=O)N1CCN(Cc2cc3nc(-c4cccc5[nH]ncc45)nc(N4CCOCC4)c3s2)CC1 [PICTILISIB]", "parameter-measured": "pIC50", "cmp": "=", "reported": 5.50}
{"compound": "NC1(c2ccc(-c3nc4ccn5c(=O)[nH]nc5c4cc3-c3ccccc3)cc2)CCC1 [MK-2206]", "parameter-measured": "pIC50", "cmp": "<", "reported": 5.40}
{"compound": "O=C(NCCCNc1nc(Nc2cccc(NC(=O)N3CCCC3)c2)ncc1I)c1cccs1 [BX-795]", "parameter-measured": "pIC50", "cmp": "=", "reported": 5.80}
{"compound": "NC(=O)c1ccc(N(C(N)=O)c2c(F)cccc2F)nc1-c1ccc(F)cc1F [VX-702]", "parameter-measured": "pIC50", "cmp": "<", "reported": 5.70}

###

Test system: Lu-65;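 also: growth inhibition of Lu-65 cancer cells, read out by a cell viability assay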
method-description: cells
Format: functional, cell-based, Homo sapiens
cond: Homo sapiens, Lu-65
Description: SANGER: Inhibition of human LU-65 cell growth in a cell viability assay.
pIC50: −log10 of the molar value.

{"compound": "O=C1NC(=O)c2c1c(-c1ccccc1Cl)cc1[nH]c3ccc(O)cc3c21", "pIC50": "< 5.70"}
{"compound": "CC1=C(/C=C/C(C)=C/C=C/C(C)=C/C(=O)O)C(C)(C)CCC1 [TRETINOIN]", "pIC50": "< 5.00"}
{"compound": "COc1ccc(N(C(=O)Oc2c(C)cccc2C)c2ccnc(Nc3ccc(N4CCN(C)CC4)cc3)n2)c(OC)c1", "pIC50": "< 5.29"}
{"compound": "CN(C)CCOc1ccc(-c2nc(-c3ccncc3)c(-c3ccc4c(c3)CC/C4=N\\O)[nH]2)cc1 [SB590885]", "pIC50": "< 5.30"}
{"compound": "CC1(C)CCC(c2ccc(Cl)cc2)=C(CN2CCN(c3ccc(C(=O)NS(=O)(=O)c4ccc(N[C@H](CCN5CCOCC5)CSc5ccccc5)c(S(=O)(=O)C(F)(F)F)c4)cc3)CC2)C1 [NAVITOCLAX]", "pIC50": "< 5.70"}
{"compound": "Nc1ccccc1NC(=O)c1ccc(CNC(=O)OCc2cccnc2)cc1 [ENTINOSTAT]", "pIC50": 5.38}
{"compound": "COC(=O)[C@H](CCSC)NC(=O)c1ccc(NC[C@@H](N)CS)cc1-c1ccccc1", "pIC50": "< 5.99"}
{"compound": "OC[C@H](Cc1ccccc1)Nc1nc(Oc2ccc3c(c2)CCC3)nc2c1ncn2Cc1ccc(-c2ccccc2)cc1", "pIC50": "< 4.99"}
{"compound": "C[C@@H](Oc1cc(-c2cnn(C3CCNCC3)c2)cnc1N)c1c(Cl)ccc(F)c1Cl [CRIZOTINIB]", "pIC50": "< 5.70"}

###

Test system: NCI-H650;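 also: growth inhibition of NCI-H650 cells, read out by a viability assay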
method-description: cells
Type: functional, cell-based
cond: Homo sapiens
Description: SANGER: Inhibition of human NCI-H650 cell growth in a cell viability assay.
pIC50: −log10 of the molar value.
parameter-measured: pIC50

{"compound": "NC(=O)Nc1cc(-c2cccc(F)c2)sc1C(=O)N[C@H]1CCCNC1 [AZD-7762]", "test-target": "NCI-H650", "reported": 5.85}
{"compound": "OC[C@H](Cc1ccccc1)Nc1nc(Oc2ccc3c(c2)CCC3)nc2c1ncn2Cc1ccc(-c2ccccc2)cc1", "test-target": "NCI-H650", "reported": 5.13}
{"compound": "CS(=O)(=O)N1CCN(Cc2cc3nc(-c4cccc5[nH]ncc45)nc(N4CCOCC4)c3s2)CC1 [PICTILISIB]", "test-target": "NCI-H650", "reported": "< 5.40"}
{"compound": "CN(NC(=O)CC(=O)NN(C)C(=S)c1ccccc1)C(=S)c1ccccc1 [ELESCLOMOL]", "test-target": "NCI-H650", "reported": 7.44}
{"compound": "COC(=O)[C@H](CCSC)NC(=O)c1ccc(NC[C@@H](N)CS)cc1-c1ccccc1", "test-target": "NCI-H650", "reported": "< 5.99"}
{"compound": "CN(C)CCOc1ccc(-c2nc(-c3ccncc3)c(-c3ccc4c(c3)CC/C4=N\\O)[nH]2)cc1 [SB590885]", "test-target": "NCI-H650", "reported": "< 5.30"}
{"compound": "COc1ccc(-c2cc3nccn3c(Nc3ncccc3C(N)=O)n2)cc1OC", "test-target": "NCI-H650", "reported": "< 5.10"}
{"compound": "Cc1ccc(-n2nc(C(C)(C)C)cc2NC(=O)Nc2ccc(OCCN3CCOCC3)c3ccccc23)cc1 [DORAMAPIMOD]", "test-target": "NCI-H650", "reported": "< 5.00"}

###

Test system: HuO9
method-description: cells
Assay type: functional, cell-based
cond: Homo sapiens
Description: SANGER: Inhibition of human HuO9 cell growth in a cell viability assay.
pIC50: −log10 of the molar value.
parameter-measured: pIC50

{"smiles-str": "NC1(c2ccc(-c3nc4ccn5c(=O)[nH]nc5c4cc3-c3ccccc3)cc2)CCC1", "cmp": "=", "reported": 6.03}
{"smiles-str": "NC(=O)Nc1cc(-c2cccc(F)c2)sc1C(=O)N[C@H]1CCCNC1", "cmp": "=", "reported": 6.53}
{"smiles-str": "CN(NC(=O)CC(=O)NN(C)C(=S)c1ccccc1)C(=S)c1ccccc1", "cmp": "=", "reported": 7.67}
{"smiles-str": "CC1=C(/C=C/C(C)=C/C=C/C(C)=C/C(=O)O)C(C)(C)CCC1", "cmp": "<", "reported": 5.00}
{"smiles-str": "CS(=O)(=O)N1CCN(Cc2cc3nc(-c4cccc5[nH]ncc45)nc(N4CCOCC4)c3s2)CC1", "cmp": "=", "reported": 6.69}
{"smiles-str": "O=C1NC(=O)c2c1c(-c1ccccc1Cl)cc1[nH]c3ccc(O)cc3c21", "cmp": "=", "reported": 5.71}
{"smiles-str": "Cc1ccc(C(=O)Nc2ccc(CN3CCN(C)CC3)c(C(F)(F)F)c2)cc1C#Cc1cnc2cccnn12", "cmp": "=", "reported": 7.26}
